Source of measurements: patent US10584116B2

EXPERIMENTAL TARGET: human TRPA1 (Homo sapiens (Human), UniProt O75762)
Sequence (O75762 whole entry): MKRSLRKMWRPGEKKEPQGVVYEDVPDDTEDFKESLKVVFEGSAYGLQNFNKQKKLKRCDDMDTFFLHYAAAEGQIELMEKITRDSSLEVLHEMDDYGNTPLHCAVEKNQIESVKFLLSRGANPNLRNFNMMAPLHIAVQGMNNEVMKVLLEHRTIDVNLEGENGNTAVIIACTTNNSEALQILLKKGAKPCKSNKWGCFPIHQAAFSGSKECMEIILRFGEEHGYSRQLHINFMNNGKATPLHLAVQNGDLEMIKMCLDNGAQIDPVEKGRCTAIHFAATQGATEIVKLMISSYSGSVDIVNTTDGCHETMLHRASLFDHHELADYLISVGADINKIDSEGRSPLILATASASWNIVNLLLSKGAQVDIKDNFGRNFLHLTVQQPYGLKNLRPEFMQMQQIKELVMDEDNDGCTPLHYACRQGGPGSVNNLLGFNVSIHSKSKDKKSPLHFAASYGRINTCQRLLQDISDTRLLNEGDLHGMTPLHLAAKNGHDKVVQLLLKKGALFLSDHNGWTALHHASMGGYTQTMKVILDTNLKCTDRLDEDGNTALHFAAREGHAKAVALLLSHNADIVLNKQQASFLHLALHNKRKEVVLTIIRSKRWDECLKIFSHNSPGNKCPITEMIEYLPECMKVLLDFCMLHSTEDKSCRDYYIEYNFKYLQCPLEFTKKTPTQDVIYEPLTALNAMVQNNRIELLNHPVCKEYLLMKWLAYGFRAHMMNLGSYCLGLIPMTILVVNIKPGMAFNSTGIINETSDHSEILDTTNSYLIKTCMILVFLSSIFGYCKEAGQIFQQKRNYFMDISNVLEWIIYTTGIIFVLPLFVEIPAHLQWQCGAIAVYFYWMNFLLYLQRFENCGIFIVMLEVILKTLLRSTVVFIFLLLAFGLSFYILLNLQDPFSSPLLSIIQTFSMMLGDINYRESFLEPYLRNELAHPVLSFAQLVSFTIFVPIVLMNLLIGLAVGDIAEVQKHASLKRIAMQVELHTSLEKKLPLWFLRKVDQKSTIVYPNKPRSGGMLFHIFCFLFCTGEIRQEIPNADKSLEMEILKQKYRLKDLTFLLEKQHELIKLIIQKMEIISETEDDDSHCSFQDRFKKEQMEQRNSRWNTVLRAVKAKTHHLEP
METHOD DESCRIPTION: Measurement of TRPA1 antagonist activity (intracellular calcium increase induced by allylisothiocyanate in 293T cells transfected with human TRPA1)
CONDITION PARAMETERS: 293T cells expressing human TRPA1, allylisothiocyanate stimulation, FLIPR Calcium4 fluorescence; read-out: hTRPA1 IC50
QUANTITY NAME: pIC50
Keep it numeric: pIC50 is minus log10 of the concentration in mol/L.

Some solved entries appear below for comparison.
# COMPOUND, pIC50
data = [
    ("CC(C)n1cc(-c2ccc(C(F)(F)F)cc2)cc(CNC(=O)[C@@H]2CCCN2S(=O)(=O)c2cc3cnccc3o2)c1=O [Example 27]", 7.03),
    ("CC(C)n1cc(CNC(=O)[C@@H]2CCCN2S(=O)(=O)c2cc3cc(F)ccc3o2)cc(-c2ccc(C(F)(F)F)cn2)c1=O [Example 51]", 7.09),
    ("CC(C)n1c(=O)c(CNC(=O)[C@@H]2CCCN2S(=O)(=O)c2cc3cc(F)ccc3o2)cn(-c2ccc(Cl)cc2)c1=O [Example 41]", 7.62),
    ("CC(C)n1cc(-c2ccc(C(F)(F)F)cn2)cc(CNC(=O)[C@@H]2CCCN2S(=O)(=O)c2cc3ccccc3o2)c1=O [Example 42]", 7.10),
    ("CC(C)n1cc(-c2ccc(C(F)(F)F)cc2)cc(CNC(=O)[C@@H]2CCCN2S(=O)(=O)c2cc3c(F)cccc3o2)c1=O [Example 44]", 6.36),
    ("CC(C)n1c(=O)c(CNC(=O)[C@@H]2CCCN2S(=O)(=O)c2cc3cnccc3o2)cn(-c2ccc(C(F)(F)F)cn2)c1=O [Example 36]", 6.70),
    ("CCn1c(=O)c(CNC(=O)[C@@H]2CCCN2S(=O)(=O)c2cc3cc(F)ccc3o2)cn(-c2ccc(C(F)(F)F)cc2)c1=O [Example 4]", 7.96),
    ("CC(C)n1c(=O)c(CNC(=O)[C@@H]2C=CCN2S(=O)(=O)c2cc3cc(F)ccc3o2)cn(-c2ccc(C(F)(F)F)cc2)c1=O [Example 16]", 8.44),
]

In: Request the reported pIC50 associated with CC(C)n1c(=O)c(CNC(=O)[C@@H]2CCN2S(=O)(=O)c2cc3cc(F)ccc3o2)cn(-c2ccc(C(F)(F)F)cc2)c1=O [Example 18]
Out: 8.05

In: Looking for the measured pIC50 of CC(C)n1cc(CNC(=O)[C@@H]2[C@@H](O)CCN2S(=O)(=O)c2cc3cc(F)ccc3o2)cc(-c2ccc(C(F)(F)F)cc2)c1=O [Example 47] , can you help?
Out: 6.64

In: Reported pIC50, compound CC(C)n1c(=O)c(CNC(=O)[C@@H]2CCCN2S(=O)(=O)c2cc3ccccc3o2)cn(-c2ccc(C(F)(F)F)cn2)c1=O [Example 33] : ____
Out: 7.36

In: Which value of pIC50 has been reported for CC(C)n1c(=O)c(CNC(=O)[C@@H]2[C@@H](O)CCN2S(=O)(=O)c2cc3ccccc3o2)cn(-c2ccc(C(F)(F)F)cc2)c1=O [Example 7] in the records?
Out: 6.66
